Attribution: ChEMBL document CHEMBL5308504

study_target: Fibroblast growth factor receptor 3 (Homo sapiens) (UniProt P22607)
Sequence (P22607 23-806 limits assumed): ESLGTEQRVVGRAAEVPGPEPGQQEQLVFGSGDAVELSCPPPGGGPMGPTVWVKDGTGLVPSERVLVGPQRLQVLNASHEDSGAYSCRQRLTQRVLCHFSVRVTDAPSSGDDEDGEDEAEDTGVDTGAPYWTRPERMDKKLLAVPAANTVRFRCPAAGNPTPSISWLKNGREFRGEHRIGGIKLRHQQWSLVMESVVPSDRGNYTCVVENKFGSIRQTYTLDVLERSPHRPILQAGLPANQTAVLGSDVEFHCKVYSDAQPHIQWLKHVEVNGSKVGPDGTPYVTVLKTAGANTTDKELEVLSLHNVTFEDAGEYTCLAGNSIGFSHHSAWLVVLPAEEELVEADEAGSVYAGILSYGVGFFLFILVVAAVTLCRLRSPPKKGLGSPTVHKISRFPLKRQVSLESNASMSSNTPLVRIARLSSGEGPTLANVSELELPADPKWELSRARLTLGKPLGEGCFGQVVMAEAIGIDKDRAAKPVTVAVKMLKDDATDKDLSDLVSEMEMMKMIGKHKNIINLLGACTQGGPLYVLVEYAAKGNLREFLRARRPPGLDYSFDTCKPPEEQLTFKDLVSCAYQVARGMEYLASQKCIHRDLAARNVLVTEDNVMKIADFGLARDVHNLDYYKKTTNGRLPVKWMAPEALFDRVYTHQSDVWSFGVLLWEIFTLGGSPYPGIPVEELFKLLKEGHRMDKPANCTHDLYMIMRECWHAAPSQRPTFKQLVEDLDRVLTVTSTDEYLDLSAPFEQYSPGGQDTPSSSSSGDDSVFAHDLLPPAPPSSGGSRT
condition: Compound concentration 20.0 uM, Protein concentration 2.0 uM, Result type QC Liability
Description: Thermal Shift Assay. Domain: start/stop: P449-E759
ΔTm values by entry

Tell me the measured ΔTm of CN(CCCCCCC1=C(c2cc(F)cc(F)c2)CCCc2cc(O)ccc21)CCCCS(=O)(=O)CCCC(F)(F)F , please. 0.68 °C

Check O=C(CCCN1CCC(O)(c2ccc(Cl)cc2)CC1)c1ccc(F)cc1 too. 0.59 °C

Quick one: Cc1ccccc1Oc1cc(-n2c(=O)cc(C(F)(F)F)[nH]c2=O)c2ccccc2c1Cl 0.76 °C

Now give it for COc1ccccc1Nc1nc(-c2nn(Cc3c(F)cc(OCCCO)cc3F)c3ccccc23)ncc1OC too. 0.41 °C

Repeat for the following compound: O=S(=O)(Nc1ccc(C(O)(C(F)(F)F)C(F)(F)F)cc1)c1cccs1 0.59 °C

***
Could you share which ΔTm value was measured for O=C(Nc1ccc(C(O)(C(F)(F)F)C(F)(F)F)cc1)c1ccc(C(F)(F)F)cc1 ? 2.93 °C

Query c1ccc(C(OC2CCN(CCCc3nnn[nH]3)CC2)c2ccccc2)cc1 next 0.52 °C

Another compound to look at: Cc1ccc2c(N)c(C(=O)NC3CCc4cc(N5CC6CCC(C5)N6)ccc4C3)sc2n1 (centres undefined) 0.55 °C

And the next one, CCn1c(=O)c2c(C)c(C(=O)N3CCC(O)CC3)sc2n(CCC(F)(F)F)c1=O ? 0.45 °C

====

study_target: Peregrin (Homo sapiens) (UniProt P55201)
Sequence (whole entry): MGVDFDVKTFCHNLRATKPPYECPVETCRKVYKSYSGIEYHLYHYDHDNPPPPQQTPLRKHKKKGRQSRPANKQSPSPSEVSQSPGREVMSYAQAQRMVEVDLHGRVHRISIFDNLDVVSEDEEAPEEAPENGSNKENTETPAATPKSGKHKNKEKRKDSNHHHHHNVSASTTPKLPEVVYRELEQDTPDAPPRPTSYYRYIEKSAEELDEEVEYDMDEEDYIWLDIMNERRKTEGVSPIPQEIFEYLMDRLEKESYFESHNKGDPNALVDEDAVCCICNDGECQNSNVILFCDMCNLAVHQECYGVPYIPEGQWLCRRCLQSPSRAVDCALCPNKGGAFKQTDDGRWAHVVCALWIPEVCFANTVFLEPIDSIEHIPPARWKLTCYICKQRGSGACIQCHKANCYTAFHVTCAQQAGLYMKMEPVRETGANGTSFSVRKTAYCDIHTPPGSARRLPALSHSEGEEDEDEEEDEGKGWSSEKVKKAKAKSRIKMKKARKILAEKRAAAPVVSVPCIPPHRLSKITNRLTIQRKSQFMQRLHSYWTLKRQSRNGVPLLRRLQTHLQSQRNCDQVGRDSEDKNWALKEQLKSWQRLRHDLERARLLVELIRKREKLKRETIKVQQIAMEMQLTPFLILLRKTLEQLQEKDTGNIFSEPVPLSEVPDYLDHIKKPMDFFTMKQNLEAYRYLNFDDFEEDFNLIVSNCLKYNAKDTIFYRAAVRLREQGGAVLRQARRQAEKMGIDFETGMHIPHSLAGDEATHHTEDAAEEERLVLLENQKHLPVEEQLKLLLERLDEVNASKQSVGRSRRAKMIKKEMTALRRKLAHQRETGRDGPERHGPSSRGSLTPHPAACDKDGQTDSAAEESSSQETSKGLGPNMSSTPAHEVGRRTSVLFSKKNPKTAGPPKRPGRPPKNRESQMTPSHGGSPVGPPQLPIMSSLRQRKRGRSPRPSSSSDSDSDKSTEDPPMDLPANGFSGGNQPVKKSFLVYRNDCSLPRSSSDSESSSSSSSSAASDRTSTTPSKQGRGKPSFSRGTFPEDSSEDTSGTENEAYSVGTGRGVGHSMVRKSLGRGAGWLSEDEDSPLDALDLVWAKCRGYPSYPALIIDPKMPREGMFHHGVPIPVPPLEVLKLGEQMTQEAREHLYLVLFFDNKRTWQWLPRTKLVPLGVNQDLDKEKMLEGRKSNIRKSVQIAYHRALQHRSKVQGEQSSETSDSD
condition: Compound concentration 20.0 uM, Protein concentration 2.0 uM, Result type QC Liability
Recorded ΔTm determines the label; the label ranges are lower level = under -2 °C, middle level = from -2 °C up to -0.7 °C, upper level = -0.7 °C and over

Tag the class for O=C(Nc1snnc1C(=O)Nc1ccc(N2CCCC2)cc1)c1cncc(C(F)(F)F)c1 upper level

# repeat for CNCc1ccc(-c2cc(-c3nc(-c4ccc(S(=O)(=O)C(C)C)cc4)cnc3N)on2)cc1 middle level

For O=C(NCCN1CCC2(CC1)C(=O)NCN2c1cccc(F)c1)c1ccc2ccccc2c1 then? lower level

Subsequent entry: COc1cc(N[C@@H]2CCCC[C@]2(O)C(F)(F)F)ccc1F middle level

Next:
Which category does the recorded ΔTm put Clc1ccccc1C(c1ccccc1)(c1ccccc1)n1cccn1 in? lower level

Now the compound COc1cc2nc(-c3cc(F)ccc3O)nc(N[C@@H]3CNC[C@H]3C(C)(C)O)c2cc1OC upper level

Same question, Cc1cc(-c2cnc(N)c3c(-c4ccc5scnc5c4)csc23)n(C)n1 this time middle level
